target.under.test: BRD2-BD2 (Homo sapiens (Human), UniProt P25440)
Sequence (P25440 344-453): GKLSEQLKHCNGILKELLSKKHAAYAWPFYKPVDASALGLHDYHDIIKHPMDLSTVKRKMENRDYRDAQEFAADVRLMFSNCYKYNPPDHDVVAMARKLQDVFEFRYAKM
assay: competitive TR-FRET assay, BET-BD with acetylated peptide ligand
Assay type: binding
settings: ratio of BRD2-BD1 EC50 to BRD2-BD2 EC50 (selectivity)
List of 2.1/2.2 values.
readout.name: 2.1/2.2

>>> test_value("CC(=O)Nc1cccc(-c2ccc3c(c2)[C@H](Nc2ccc(NC(=O)CO)cc2)C[C@H](C)N3C(C)=O)c1")
33
>>> test_value("CC(=O)Nc1cccc(-c2ccc3c(c2)[C@H](NC2CCCCCC2)C[C@H](C)N3C(C)=O)c1")
3.9
>>> test_value("CC(=O)Nc1cccc(-c2ccc3c(c2)[C@H](NCc2ccc(C(F)(F)F)cc2)C[C@H](C)N3C(C)=O)c1")
1.0
>>> test_value("CC(=O)Nc1cccc(-c2ccc3c(c2)[C@H](Nc2ccc(C(C)=O)cc2)C[C@H](C)N3C(C)=O)c1")
16

----------
target.under.test: BRD3-BD1 (Homo sapiens (Human), UniProt Q15059)
Sequence (Q15059 34-140): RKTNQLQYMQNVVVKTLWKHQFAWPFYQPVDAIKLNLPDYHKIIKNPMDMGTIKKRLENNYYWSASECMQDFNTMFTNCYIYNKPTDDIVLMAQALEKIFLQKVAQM
assay: competitive TR-FRET assay, BET-BD with acetylated peptide ligand
Format: binding
settings: BRD3-BD1; Table 11 additional modifications; read-out: 3.1 EC50
1 if EC50 is below 0.7 µM. -1 if not; exact matches included in -1.

>>> discrete_label("CC(=O)N1c2ccc(-c3ccc4cc[nH]c4c3)cc2[C@H](NC(=O)OC(C)C)C[C@@H]1C [compound 79]")
-1
>>> discrete_label("CC(=O)N1c2ccc(-c3cccc(-n4cccn4)c3)cc2[C@H](NC(=O)OC(C)C)C[C@@H]1C [compound 78]")
-1
>>> discrete_label("CC(=O)Nc1cccc(-c2ccc3c(c2)[C@H](NC(=O)Cc2ccccc2)C[C@H](C)N3C(C)=O)c1 [compound 64]")
-1
>>> discrete_label("CC(=O)N1c2ccc(-c3cccc(NC(=O)CC(C)C)c3)cc2[C@H](NC(=O)OC(C)C)C[C@@H]1C [compound 104]")
1
>>> discrete_label("CCOC(=O)c1ccc(-c2ccc3c(c2)[C@H](NC(=O)OC(C)C)C[C@H](C)N3C(C)=O)o1 [compound 83]")
-1
>>> discrete_label("CC(=O)Nc1cccc(-c2ccc3c(c2)[C@H](Nc2ccc(-c4nnc(C)o4)cc2)C[C@H](C)N3C(C)=O)c1 [compound 35]")
1
>>> discrete_label("CC(=O)N1c2ccc(-c3cccc(NCC4CCCCC4)c3)cc2[C@H](NC(=O)OC(C)C)C[C@@H]1C [compound 112]")
-1

----------
List of pEC50 values.
target.under.test: BRD4-BD1 (Homo sapiens (Human))
assay: competitive TR-FRET assay, BET-BD with acetylated peptide ligand
Assay type: binding
settings: BRD4-BD1; Table 11 additional modifications; read-out: 4.1 EC50
pEC50: −log10 of the molar value.
readout.name: pEC50

>>> test_value("COc1ccc(C(=O)N[C@@H]2C[C@H](C)N(C(C)=O)c3ccc(-c4cccc(NC(C)=O)c4)cc32)cc1")
4.11
>>> test_value("CCC(=O)N[C@@H]1C[C@H](C)N(C(C)=O)c2ccc(-c3cccc(NC(C)=O)c3)cc21")
4.22
>>> test_value("CC(=O)N1c2ccc(-c3cccc(NCc4ccc(C)cc4)c3)cc2[C@H](NC(=O)OC(C)C)C[C@@H]1C")
5.46
>>> test_value("CC(=O)N1c2ccc(-c3ccc4occc(=O)c4c3)cc2[C@H](NC(=O)OC(C)C)C[C@@H]1C")
5.28
>>> test_value("CC(=O)N1c2ccc(-c3cccc(NCc4ccccc4)c3)cc2[C@H](NC(=O)OC(C)C)C[C@@H]1C")
6.28
>>> test_value("CC(=O)Nc1cccc(-c2ccc3c(c2)[C@H](Nc2ccc(C(=O)OC(C)(C)C)cc2)C[C@H](C)N3C(C)=O)c1")
4.80

----------
target.under.test: BRD2-BD2 (Homo sapiens (Human))
assay: competitive TR-FRET assay, BET-BD with acetylated peptide ligand
Format: binding
settings: ratio of BRD2-BD1 EC50 to BRD2-BD2 EC50 (selectivity)
List of 2.1/2.2 values.
readout.name: 2.1/2.2

>>> test_value("CC(=O)Nc1cccc(-c2ccc3c(c2)[C@H](Nc2ccccc2C)C[C@H](C)N3C(C)=O)c1")
92
>>> test_value("COC(=O)c1ccc(N[C@@H]2C[C@H](C)N(C(C)=O)c3ccc(-c4cccc(NCCC(C)C)c4)cc32)cc1")
52
>>> test_value("COc1ccc(C(=O)N[C@@H]2C[C@H](C)N(C(C)=O)c3ccc(-c4cccc(NC(C)=O)c4)cc32)cc1")
2.0
>>> test_value("CC(=O)N1c2ccc(-c3cccc(NC(=O)CC(C)C)c3)cc2[C@H](NC(=O)OC(C)C)C[C@@H]1C")
7.8
>>> test_value("CC(=O)N1c2ccc(-c3cccc(NC(=O)c4ccccc4)c3)cc2[C@H](NC(=O)OC(C)C)C[C@@H]1C")
11
>>> test_value("CC(=O)Nc1cccc(-c2ccc3c(c2)[C@H](Nc2ccc(C(=O)N(C)C)cc2)C[C@H](C)N3C(C)=O)c1")
58
>>> test_value("CC(=O)Nc1cccc(-c2ccc3c(c2)[C@H](Nc2ccc(C#N)c(C)c2)C[C@H](C)N3C(C)=O)c1")
73

----------
target.under.test: BRD3-BD1 (Homo sapiens (Human))
assay: competitive TR-FRET assay, BET-BD with acetylated peptide ligand
Type: binding
settings: BRD3-BD1; Table 11 additional modifications; read-out: 3.1 EC50
pEC50: −log10 of the molar value.
readout.name: pEC50

>>> test_value("COc1ccc(-c2ccc3c(c2)[C@H](NC(=O)OC(C)C)C[C@H](C)N3C(C)=O)cc1")
5.72
>>> test_value("CC(=O)Nc1cccc(-c2ccc3c(c2)[C@H](Nc2ccc(C(=O)N(C)C)cc2)C[C@H](C)N3C(C)=O)c1")
5.96
>>> test_value("CC(=O)N1c2ccc(-c3cc[nH]n3)cc2[C@H](Nc2ccccc2OC(F)(F)F)C[C@@H]1C")
4.64
>>> test_value("CC(=O)N1c2ccc(-c3ccc4c(c3)OCCO4)cc2[C@H](NC(=O)OC(C)C)C[C@@H]1C")
5.00
>>> test_value("CC(=O)Nc1cccc(-c2ccc3c(c2)[C@H](NC(=O)OC(C)C)C[C@H](C)N3C(C)=O)c1")
6.21
>>> test_value("CC(=O)N1c2ccc(-c3ccc(N(C)C)cc3)cc2[C@H](NC(=O)OC(C)C)C[C@@H]1C")
5.85
>>> test_value("CC(=O)N1c2ccc(-c3ccc4[nH]ccc4c3)cc2[C@H](NC(=O)OC(C)C)C[C@@H]1C")
5.23

----------
target.under.test: BRD3(2) (Homo sapiens (Human))
Sequence (Q15059 306-415): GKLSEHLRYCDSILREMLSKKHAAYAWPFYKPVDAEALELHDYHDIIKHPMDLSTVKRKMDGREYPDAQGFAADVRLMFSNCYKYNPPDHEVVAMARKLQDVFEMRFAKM
assay: BROMOscan KD determination
settings: BROMOscan, Table 10
pKd: −log10 of the molar value.
Decision: pKd >= 9 yields Yes, all other cases yield No.

>>> discrete_label("CC(=O)N1c2ccc(-c3ccc(C(=O)O)cc3)cc2[C@H](Nc2ccc(Cl)cc2)C[C@@H]1C [GSK-726, IBET-726, reference compound]")
"Yes"
>>> discrete_label("CC(=O)N1c2ccc(-c3cccc(-n4cccn4)c3)cc2[C@H](Nc2ccc(Cl)cc2)C[C@@H]1C [compound 136]")
"No"
>>> discrete_label("CCCOc1cccc(-c2ccc3c(c2)[C@H](Nc2ccc(C(=O)OC)cc2)C[C@H](C)N3C(C)=O)c1 [compound 56]")
"No"
>>> discrete_label("CC(=O)Nc1cccc(-c2ccc3c(c2)[C@H](Nc2ccccc2C(F)(F)F)C[C@H](C)N3C(C)=O)c1 [compound 41]")
"No"
>>> discrete_label("COC(=O)c1ccc(N[C@@H]2C[C@H](C)N(C(C)=O)c3ccc(-c4cccc(NCCC(F)(F)F)c4)cc32)cc1 [compound 47]")
"No"
>>> discrete_label("COC(=O)c1ccc(N[C@@H]2C[C@H](C)N(C(C)=O)c3ccc(-c4cccc(NC(C)=O)c4)cc32)cc1 [compound 4]")
"Yes"

----------
List of pEC50 values.
target.under.test: BRD2-BD2 (Homo sapiens (Human), UniProt P25440)
assay: competitive TR-FRET assay, BET-BD with acetylated peptide ligand
Assay type: binding
settings: BRD2-BD2; Table 11 additional modifications; read-out: 2.2 EC50
pEC50: −log10 of the molar value.
readout.name: pEC50

>>> test_value("CC(=O)Nc1cccc(-c2ccc3c(c2)[C@H](Nc2ccc(C(=O)N(C)C)cc2)C[C@H](C)N3C(C)=O)c1")
7.40
>>> test_value("CC(=O)Nc1cccc(-c2ccc3c(c2)[C@H](Nc2ccc(S(=O)(=O)N(C)C)cc2)C[C@H](C)N3C(C)=O)c1")
7.00
>>> test_value("COc1cc(F)ccc1N[C@@H]1C[C@H](C)N(C(C)=O)c2ccc(-c3cc[nH]n3)cc21")
6.85
>>> test_value("CC(=O)N1c2ccc(-c3cccc(NC(=O)OC(C)(C)C)c3)cc2[C@H](Nc2ccc(Cl)cc2)C[C@@H]1C")
6.23
>>> test_value("CC(=O)N1c2ccc(-c3cccc(NC(=O)C(C)(C)C)c3)cc2[C@H](Nc2ccc(C#N)cc2)C[C@@H]1C")
7.54
>>> test_value("CC(=O)N1c2ccc(-c3ccnn3C)cc2[C@H](Nc2ccccc2OC(F)(F)F)C[C@@H]1C")
6.41
>>> test_value("CC(=O)N1c2ccc(-c3cccc(-n4cccn4)c3)cc2[C@H](NC(=O)OC(C)C)C[C@@H]1C")
5.54
>>> test_value("CC(=O)Nc1cccc(-c2ccc3c(c2)[C@H](Nc2ccc(N(C)C)cc2)C[C@H](C)N3C(C)=O)c1")
6.96
>>> test_value("CC(=O)Nc1cccc(-c2ccc3c(c2)[C@H](NC2CCCCCC2)C[C@H](C)N3C(C)=O)c1")
6.21
>>> test_value("CC(=O)Nc1cccc(-c2ccc3c(c2)[C@H](Nc2ccc(C#N)c(Cl)c2)C[C@H](C)N3C(C)=O)c1")
7.23
>>> test_value("CC(=O)N1c2ccc(-c3cccc(NC4CCCC4)c3)cc2[C@H](Nc2ccccc2OC(F)(F)F)C[C@@H]1C")
5.74
>>> test_value("CNCc1ccc(N[C@@H]2C[C@H](C)N(C(C)=O)c3ccc(-c4cccc(NC(C)=O)c4)cc32)cc1")
7.00
>>> test_value("CC(=O)N1c2ccc(-c3cccc(NC(=O)c4ccccc4)c3)cc2[C@H](NC(=O)OC(C)C)C[C@@H]1C")
6.80
>>> test_value("CC(=O)N1c2ccc(-c3cccc(NCCCc4ccccc4)c3)cc2[C@H](NC(=O)OC(C)C)C[C@@H]1C")
6.55
>>> test_value("CC(=O)N1c2ccc(-c3cccc(NC(=O)C4CCCCC4)c3)cc2[C@H](NC(=O)OC(C)C)C[C@@H]1C")
6.92
>>> test_value("COc1cc(C#N)ccc1N[C@@H]1C[C@H](C)N(C(C)=O)c2ccc(-c3cccc(NC(C)=O)c3)cc21")
7.77
>>> test_value("CCCCCN(CCCCC)c1cccc(-c2ccc3c(c2)[C@H](Nc2ccccc2OC(F)(F)F)C[C@H](C)N3C(C)=O)c1")
4.66
>>> test_value("CC(=O)Nc1cccc(-c2ccc3c(c2)[C@H](Nc2ccc([N+](=O)[O-])cc2)C[C@H](C)N3C(C)=O)c1")
6.96
>>> test_value("COc1ccccc1-c1ccc2c(c1)[C@H](NC(=O)OC(C)C)C[C@H](C)N2C(C)=O")
5.54
>>> test_value("CC(=O)N1c2ccc(-c3c[nH]c4ccccc34)cc2[C@H](NC(=O)OC(C)C)C[C@@H]1C")
5.96
>>> test_value("CC(=O)N1c2ccc(-c3cccc(NC(=O)c4ccc(C)cc4)c3)cc2[C@H](NC(=O)OC(C)C)C[C@@H]1C")
6.38
>>> test_value("CC(=O)N1c2ccc(-c3cccc(CCO)c3)cc2[C@H](NC(=O)OC(C)C)C[C@@H]1C")
6.37
>>> test_value("CC(=O)Nc1cccc(-c2ccc3c(c2)[C@H](Nc2cccc4ncccc24)C[C@H](C)N3C(C)=O)c1")
7.70
>>> test_value("CC(=O)N1c2ccc(-c3cccc(N(CCC(C)C)CCC(C)C)c3)cc2[C@H](Nc2ccccc2OC(F)(F)F)C[C@@H]1C")
4.47
>>> test_value("CC(=O)N1c2ccc(-c3cccc(CN)c3)cc2[C@H](NC(=O)OC(C)C)C[C@@H]1C")
6.33
>>> test_value("CC(=O)Nc1cccc(-c2ccc3c(c2)[C@H](Nc2ccc(C#N)c(C)c2)C[C@H](C)N3C(C)=O)c1")
7.77
>>> test_value("CC(=O)Nc1ccc(-c2ccc3c(c2)[C@H](Nc2ccc(Cl)cc2)C[C@H](C)N3C(C)=O)cc1")
6.44

The origin of these recorded values is patent US11028051B2.
